tested on: Klebsiella pneumoniae; test: Antimicrobial activity against extended-spectrum beta lactamase producing Klebsiella pneumoniae expressing beta-lactamase CTX-M-3, CTX-M-15 and CTX-M-55 gene by Etest; type: functional
test_readout: MIC90 (µg/mL)
Numeric only. Scale: µg/mL

# annotated cases, reported MIC90 shown
compound="C[C@@H](O)[C@H]1C(=O)N2C(C(=O)O)=C(SCCNC=N)C[C@H]12 [IMIPENEM ANHYDROUS]" test_readout=MIC90 units_label=µg/mL meas_value=0.5
compound=C[C@@H](O)[C@H]1C(=O)N2C(C(=O)O)=C(S[C@@H]3CN[C@H](C(=O)N(C)C)C3)[C@H](C)[C@H]12 test_readout=MIC90 units_label=µg/mL meas_value=0.19
compound=CC(C)(O/N=C(\C(=O)N[C@@H]1C(=O)N2C(C(=O)[O-])=C(C[n+]3ccccc3)CS[C@H]12)c1csc(N)n1)C(=O)O test_readout=MIC90 units_label=µg/mL meas_value=256

Value sought: MIC90, system Klebsiella pneumoniae, item `C[C@@H](O)[C@H]1C(=O)N2C(C(=O)O)=C(S[C@@H]3CN[C@H](C(=O)Nc4cccc(C(=O)O)c4)C3)[C@H](C)[C@H]12` . Result: 0.38

* * *

Catalogue of MIC90 values
tested on: Klebsiella pneumoniae; experiment: Antimicrobial activity against extended-spectrum beta lactamase producing Klebsiella pneumoniae by Etest; type: functional

The cases that follow already have their MIC90 on record.
chemical_structure=CO/N=C(\C(=O)N[C@@H]1C(=O)N2C(C(=O)O)=C(COC(C)=O)CS[C@H]12)c1csc(N)n1 meas_value="> 256 µg/mL"
chemical_structure=CC(C)(O/N=C(\C(=O)N[C@@H]1C(=O)N2C(C(=O)[O-])=C(C[n+]3ccccc3)CS[C@H]12)c1csc(N)n1)C(=O)O meas_value="> 256 µg/mL"

Please turn your attention to the following entry.
Value of measured MIC90 for the entry `CO/N=C(\C(=O)N[C@@H]1C(=O)N2C(C(=O)O)=C(CSc3nc(=O)c(O)nn3C)CS[C@H]12)c1csc(N)n1` : > 256 µg/mL
